# Test system: NCI-H23 lung
# MEASUREMENT PROTOCOL: NCI-60 one-dose screen, 48 h (100 = growth as untreated, 0 = no growth, -100 = all killed)
# CONDITION NOTES: 10 µM unless noted
The panel holds about 83,000 compounds, 20% with a hit somewhere; the sample as a whole holds those more often.
Returns Condition met if the recorded growth is greater than or equal to 70%, and Condition not met otherwise.

Examples with answers:
{"columns": ["MOLECULE", "CLASS NAME"],
 "data": [
  ["COc1ccc2c(c1)NC1=C(C(=O)OC1)C2c1cc(OC)c(OC)c(OC)c1 (configuration not stated)", "Condition not met"],
  ["CCCCN(CCCC)CC(O)c1ccccc1 (configuration not stated)", "Condition met"],
  ["CCOc1cc(/C=N\\Nc2nnc(C)n2N)c(C)cc1N(CCCl)CCCl", "Condition not met"]
]}

Query :: State whether the measured growth reaches 70%, counting equality as reaching it, for CCCCOC(=O)c1ccccc1C(=O)O.CCCCOC(=O)c1ccccc1C(=O)O.[Cu+2]
Result :: Condition met

Query :: Decide: growth of Oc1c(Br)cc(Br)cc1Br.[Cu+2] >= 70%?
Result :: Condition met

Query :: Tell me whether growth is at least 70% here: CNC(=O)Oc1cccc(N(C)C)c1
Result :: Condition met

====

# Test system: HL-60(TB) leukemia
# MEASUREMENT PROTOCOL: NCI-60 one-dose screen, 48 h (100 = growth as untreated, 0 = no growth, -100 = all killed)
# CONDITION NOTES: 10 µM unless noted
Compounds without any hit were thinned out: in the full panel of roughly 83,000, 20% have a hit.
Entries and their measured growth follow.
Give the value in % but do not write % after it.

Guide cases for growth, answers given:
{"columns": ["MOLECULE", "REPORTED RESULT"],
 "data": [
  ["COc1nc2c(c(=O)n1C)N=C1c3ccccc3C(=O)C1C(c1ccccc1)N2 (configuration not stated)", 112],
  ["CSc1nc2c(c(=O)n1C)CN(Cc1ccccc1)C(=O)CN2", 84.9],
  ["CCNC(=O)N1CCc2c(Cl)c3c(c(OC)c2[C@@H]1[C@H]1OCc2c1ccc(OC)c2OC)OCCO3", -2.42],
  ["COC(=O)CCc1cc(O)c2c(c1)[C@@H](C(=O)OC)[C@H](c1ccc(O)c(O)c1)O2", 9.9],
  ["O=C(N/N=C\\c1cc(Cl)ccc1[N+](=O)[O-])c1ccco1", 107],
  ["COc1ccc2nc3cc(Cl)ccc3c(Nc3ccc(O)cc3)c2c1", 44.2]
]}

Then there is this molecule:
Query :: Give HL-60(TB) leukemia growth for the following molecule: COc1ccc(-c2nc([C@@H](C)Sc3nc(N)cc(N)n3)c(C)s2)cc1OCCN1CCOCC1
Result :: 105

====

# Test system: HL-60(TB) leukemia
# MEASUREMENT PROTOCOL: NCI-60 one-dose screen, 48 h (100 = growth as untreated, 0 = no growth, -100 = all killed)
# CONDITION NOTES: 10 µM unless noted
Compounds without any hit were thinned out: in the full panel of roughly 83,000, 20% have a hit.
READOUT LABEL: growth (%)
The figure you give is taken to be in %; do not add the unit.

Examples from the recorded data:
{"columns": ["COMPOUND", "MEASURED ON", "growth / %"],
 "data": [
  ["CCOc1cccc2c(NC(C)CCCN(CC)CC)c(C)cnc12 (stereo not drawn)", "HL-60(TB) leukemia", 105],
  ["O=C(CN(C(=O)Cn1c(=O)n2nnnc2c2ccccc21)c1ccccc1C(F)(F)F)Nc1ccc(C(F)(F)F)cc1", "HL-60(TB) leukemia", 101]
]}

Next:
Query :: In one line, give reported growth of the entry COc1ccc(/C=C/c2nc(N3CCOCC3)c3nc(Cl)c(Cl)cc3n2)cc1OC .
Result :: 91.9
